study system: 5-hydroxytryptamine receptor 2B (Homo sapiens, UniProt P41595); also: in other assays of this panel Not Active means under 50% inhibition at 10 µM
Sequence (P41595 whole entry): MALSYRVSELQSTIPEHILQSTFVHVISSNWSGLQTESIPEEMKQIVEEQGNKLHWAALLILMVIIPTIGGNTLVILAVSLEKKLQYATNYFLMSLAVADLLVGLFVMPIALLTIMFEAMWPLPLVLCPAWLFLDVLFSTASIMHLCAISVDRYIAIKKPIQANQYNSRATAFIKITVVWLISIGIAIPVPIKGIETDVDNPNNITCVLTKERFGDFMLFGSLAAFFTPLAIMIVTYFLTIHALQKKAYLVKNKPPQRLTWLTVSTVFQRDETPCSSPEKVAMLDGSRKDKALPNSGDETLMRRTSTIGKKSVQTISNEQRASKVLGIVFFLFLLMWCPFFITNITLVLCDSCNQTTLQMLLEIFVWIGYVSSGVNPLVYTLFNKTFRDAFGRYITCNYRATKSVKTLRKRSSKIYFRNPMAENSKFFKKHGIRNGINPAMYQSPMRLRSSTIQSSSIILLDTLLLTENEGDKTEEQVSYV
Assay type: cell membranes, CHO-K1, Membrane
recorded conditions: read-out: Ki
pKi: −log10 of the molar value.
Outcome: class 1 for pKi of at least 6; class 0 for anything lower.

# compound, study system, cat
data = [
    ("CC(CCc1ccccc1)NCC(O)c1ccc(O)c(C(N)=O)c1 (stereo unspecified)", "5-hydroxytryptamine receptor 2B (Homo sapiens, UniProt P41595)", "class 0"),
    ("COc1ccc(CN(CCN(C)C)c2ccccn2)cc1", "5-hydroxytryptamine receptor 2B (Homo sapiens, UniProt P41595)", "class 0"),
    ("CNCCC=C1c2ccccc2CCc2ccccc21", "5-hydroxytryptamine receptor 2B (Homo sapiens, UniProt P41595)", "class 1"),
    ("CC[C@@]1(O)C(=O)OCc2c1cc1n(c2=O)Cc2cc3ccccc3nc2-1", "5-hydroxytryptamine receptor 2B (Homo sapiens, UniProt P41595)", "class 1"),
    ("Clc1ccccc1C(c1ccccc1)(c1ccccc1)n1ccnc1", "5-hydroxytryptamine receptor 2B (Homo sapiens, UniProt P41595)", "class 0"),
    ("CN1C[C@H](C(=O)N[C@]2(C)O[C@@]3(O)[C@@H]4CCCN4C(=O)[C@H](Cc4ccccc4)N3C2=O)C=C2c3cccc4[nH]cc(c34)C[C@H]21", "5-hydroxytryptamine receptor 2B (Homo sapiens, UniProt P41595)", "class 1"),
]

###

Measured pIC50 by item
study system: Tyrosine-protein kinase Fyn (Homo sapiens);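 also: enzymatic inhibition of Fyn kinase activity measured with Poly(Glu:Tyr) as the phosphorylation substrate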; also: in other assays of this panel Not Active means under 50% inhibition at 10 µM
Sequence (P06241 whole entry): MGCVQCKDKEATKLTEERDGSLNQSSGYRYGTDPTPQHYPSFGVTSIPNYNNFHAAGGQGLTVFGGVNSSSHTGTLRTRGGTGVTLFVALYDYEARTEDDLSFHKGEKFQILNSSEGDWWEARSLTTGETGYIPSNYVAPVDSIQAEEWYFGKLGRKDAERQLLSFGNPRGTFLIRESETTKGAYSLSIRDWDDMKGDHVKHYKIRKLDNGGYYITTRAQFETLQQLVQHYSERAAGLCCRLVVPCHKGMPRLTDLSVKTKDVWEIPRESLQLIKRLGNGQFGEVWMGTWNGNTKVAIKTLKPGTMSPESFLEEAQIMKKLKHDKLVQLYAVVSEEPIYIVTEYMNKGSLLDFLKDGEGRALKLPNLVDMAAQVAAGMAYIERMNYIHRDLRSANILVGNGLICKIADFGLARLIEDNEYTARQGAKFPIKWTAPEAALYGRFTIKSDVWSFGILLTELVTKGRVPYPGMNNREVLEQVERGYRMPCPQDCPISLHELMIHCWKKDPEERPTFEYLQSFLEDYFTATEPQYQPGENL
assay method text: biochemical
Format: cell-based, Insect cells
recorded conditions: read-out: IC50
pIC50: −log10 of the molar value.

# compound, pIC50
measured = [
    ("Oc1c(I)cc(I)c2cccnc12", 5.80),
    ("CSc1ccc2c(c1)N(CCC1CCCCN1C)c1ccccc1S2 (stereo not drawn)", 5.30),
    ("O=C1c2c(O)ccc(O)c2C(=O)c2c(NCCNCCO)ccc(NCCNCCO)c21", 5.90),
    ("c1ccc2c(c1)cc1ccc3cccc4ccc2c1c34", 4.58),
    ("CN1C[C@H](C(=O)N[C@]2(C)O[C@@]3(O)[C@@H]4CCCN4C(=O)[C@H](Cc4ccccc4)N3C2=O)C=C2c3cccc4[nH]cc(c34)C[C@H]21", 5.50),
    ("COc1ccc(CCN2CCC(Nc3nc4ccccc4n3Cc3ccc(F)cc3)CC2)cc1", 5.55),
    ("CC(C)(O)c1ccccc1CC[C@@H](SCC1(CC(=O)O)CC1)c1cccc(/C=C/c2ccc3ccc(Cl)cc3n2)c1", 5.33),
    ("Clc1ccccc1C(c1ccccc1)(c1ccccc1)n1ccnc1", 4.50),
]

###

study system: Mitogen-activated protein kinase 14 (Homo sapiens, UniProt Q16539); also: in other assays of this panel Not Active means under 50% inhibition at 10 µM;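 also: inhibition of p38alpha enzyme activity in a biochemical kinase assay, with myelin basic protein serving as substrate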
Sequence (Q16539 whole entry): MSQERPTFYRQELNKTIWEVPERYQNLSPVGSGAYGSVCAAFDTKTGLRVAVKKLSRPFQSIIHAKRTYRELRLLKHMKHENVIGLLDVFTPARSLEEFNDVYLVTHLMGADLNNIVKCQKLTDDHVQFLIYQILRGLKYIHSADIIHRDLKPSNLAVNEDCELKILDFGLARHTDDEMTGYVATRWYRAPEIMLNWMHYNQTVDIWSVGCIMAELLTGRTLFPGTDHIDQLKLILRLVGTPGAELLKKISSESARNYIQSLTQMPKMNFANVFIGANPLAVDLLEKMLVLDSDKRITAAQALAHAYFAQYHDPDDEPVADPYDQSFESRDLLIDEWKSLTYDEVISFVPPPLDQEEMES
Design: species or system Escherichia coli

# compound, IC50
rows = [
    ("CNC(=O)Oc1ccc2c(c1)[C@]1(C)CCN(C)[C@@H]1N2C", "Not Active"),
    ("N=C(N)NCCCCNC(=N)N.O=S(=O)(O)O [ARCAINE SULFATE]", "Not Active"),
    ("Nc1nc2c(ncn2COC(CO)CO)c(=O)[nH]1", "Not Active"),
    ("C/C=C1\\[C@H]2C=C(C)C[C@]1(N)c1ccc(=O)[nH]c1C2", "Not Active"),
    ("CN(N=O)C(=O)N[C@@H](C=O)[C@@H](O)[C@H](O)[C@H](O)CO", "Not Active"),
    ("O=P1(NCCCl)OCCCN1CCCl (configuration not stated) [IFOSFAMIDE]", "Not Active"),
    ("CN[C@H](CC(C)C)C(=O)N[C@H]1C(=O)N[C@@H](CC(N)=O)C(=O)N[C@H]2C(=O)N[C@H]3C(=O)N[C@H](C(=O)N[C@H](C(=O)O)c4cc(O)cc(O)c4-c4cc3ccc4O)[C@H](O)c3ccc(c(Cl)c3)Oc3cc2cc(c3O[C@@H]2O[C@H](CO)[C@@H](O)[C@H](O)[C@H]2O[C@H]2C[C@](C)(N)[C@H](O)[C@H](C)O2)Oc2ccc(cc2Cl)[C@H]1O", "Not Active"),
]
